Listed compounds paired with reported remaining activity at 50 µM
Target: CerS5 (Homo sapiens (Human), UniProt Q8N5B7)
Sequence (Q8N5B7 whole entry, species assumed): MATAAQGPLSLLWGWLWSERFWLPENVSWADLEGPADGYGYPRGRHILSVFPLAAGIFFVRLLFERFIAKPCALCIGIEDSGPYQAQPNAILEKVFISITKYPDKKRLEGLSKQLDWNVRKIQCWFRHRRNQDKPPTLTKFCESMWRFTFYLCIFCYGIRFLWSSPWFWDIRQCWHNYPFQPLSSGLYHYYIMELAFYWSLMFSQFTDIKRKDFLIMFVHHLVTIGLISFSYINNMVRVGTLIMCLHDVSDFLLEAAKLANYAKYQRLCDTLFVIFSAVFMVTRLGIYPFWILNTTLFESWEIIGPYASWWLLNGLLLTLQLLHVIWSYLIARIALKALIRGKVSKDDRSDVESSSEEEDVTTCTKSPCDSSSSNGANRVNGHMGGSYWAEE
Assay: CerS5 activity/inhibition assay using NBD sphinganine
Assay type: biochemical
Conditions: 50 μM compound, read-out: CerS5 activity (percentage of control)
Numeric answer only, unit % assumed.

Before answering, review these 5 worked examples.
{"columns": ["compound", "test.target", "val"],
 "data": [
  ["CCCCCCCCCCCCc1ccc(NC(=O)[C@@H](N)CCN)cc1", "CerS5 (Homo sapiens (Human), UniProt Q8N5B7)", 138],
  ["CCCCCCCCCCCCc1ccc(NC(=O)[C@H](N)CN)cc1", "CerS5 (Homo sapiens (Human), UniProt Q8N5B7)", 104],
  ["CCCCCCCCCCCCCCc1ccc(NC(=O)C(N)CN)cc1 (stereo not drawn)", "CerS5 (Homo sapiens (Human), UniProt Q8N5B7)", 92.7],
  ["CCCCCCCCCCCCc1ccc(NC(=O)C(O)CN)cc1 (stereo not drawn)", "CerS5 (Homo sapiens (Human), UniProt Q8N5B7)", 73.5],
  ["CCCCCCCCCCCCCCCCNC(=O)C(N)CN (stereo not drawn)", "CerS5 (Homo sapiens (Human), UniProt Q8N5B7)", 81.9]
]}

Next item in the queue.
Qu. What does the record list as remaining activity at 50 µM for "CCCCCCCCCCCCc1ccc(NC(=O)[C@@H](N)CN)cc1" ?
Ans. 119

* * *

Molecular target: CerS5 (Homo sapiens (Human))
Assay: N-acylation by CerS5 using labeled palmitoyl CoA, relative to sphinganine
Type: biochemical
Settings: CerS5, labeled palmitoyl CoA, n=1-2
Listed molecules paired with reported Rate of N-Acylation
Numeric answer only, unit pmol/mg/min assumed.

Before answering, review these 5 worked examples.
{"columns": ["molecule", "test.target", "Rate of N-Acylation, pmol/mg/min"],
 "data": [
  ["CCCCCCCCCCCCCCC[C@H](N)[C@H](CN)N(C)C", "CerS5 (Homo sapiens (Human))", 6.1],
  ["CCCCCCCCCC/C=C/CCC(N)(O)CO (stereo not shown)", "CerS5 (Homo sapiens (Human))", 4.2],
  ["CCCCCCCCCCCCCCC[C@H](O)[C@H](CN)N(C)C", "CerS5 (Homo sapiens (Human))", 55.0],
  ["CCCCCCCCCCCCCCC[C@H](O)[C@H](CO)N(C)C", "CerS5 (Homo sapiens (Human))", 4.7],
  ["CCCCCCCCCC/C=C/CCC(N)(N)CN", "CerS5 (Homo sapiens (Human))", 14.4]
]}

Next item in the queue.
Qu. What does the record list as Rate of N-Acylation for "CCCCCCCC/C=C\CCCCCCCC[C@@H](O)[C@H](N)CO" ?
Ans. 144.6

* * *

Biological target: CerS5 (Homo sapiens (Human), UniProt Q8N5B7)
Experiment: N-acylation by CerS5 using labeled palmitoyl CoA, relative to sphinganine
Format: biochemical
Settings: Yes/No; CerS5
observable: N-Acylation using 14C labeled palmitoyl CoA

Before answering, review these 4 worked examples.
{"columns": ["compound", "val"],
 "data": [
  ["CCCCCCCCCC/C=C/CCC(N)(N)CN [Compound 791582]", "No"],
  ["CCCCCCCCCCCCCCC[C@H](N)[C@H](N)CN [Compound 791598]", "No"],
  ["CCCCCCCCCCCCCCC[C@@H](N)[C@H](CN)N(C)C [Compound 791579]", "No"],
  ["CCCCCCCCCCCCCCc1ccc(NC(=O)C(N)CN)cc1 (stereo not drawn) [Compound 792205]", "No"]
]}

Qu. Query for CerS5 (Homo sapiens (Human), UniProt Q8N5B7): what N-Acylation using 14C labeled palmitoyl CoA does the record show for CCCCCCCCCCCCCCNC(=O)[C@@H](N)CN [Compound 791994] ?
Ans. Yes

Qu. Query CCCCCCCCCCCCCCC[C@@H](O)[C@H](N)CN [Compound 791597] next
Ans. No

Qu. Query CCCCCCCCCCCCCCCCCCNC(=O)C(N)CN (stereo not drawn) [Compound 792209] next
Ans. No

Qu. Query CCCCCCCCCCCCCCC[C@H](N)[C@H](CN)N(C)C [Compound 791580] next
Ans. No

Qu. Query CCCCCCCCCCCCCCC[C@H](O)[C@H](CO)N(C)C [Compound 791577] next
Ans. No

Qu. Query CCCCCCCCCCCCCCCCc1ccc(NC(=O)[C@@H](N)CN)cc1 [Compound 792206] next
Ans. No

Qu. Query CCCCC/C=C\C/C=C\CCCCCCCC[C@H](O)[C@@H](N)CO [Compound 791602] next
Ans. Yes

Qu. Query CCCCCCCCCCCCc1ccc(NC(=O)C(O)CN)cc1 (stereo not drawn) [Compound 792211] next
Ans. Yes

Qu. Query CCCCCCCCCC/C=C/CCC(N)(O)CO (stereo not drawn) [Compound 791581] next
Ans. No

Qu. Query CCCCCCCC/C=C\CCCCCCCC[C@@H](O)[C@H](N)CO [Compound 791601] next
Ans. Yes

* * *

Listed molecules paired with reported Rate of N-Acylation (either pmol/mg/min or % of control)
Target: UniProt:Q8N5B7
Assay: N-acylation by CerS5 using labeled palmitoyl CoA, relative to sphinganine
Format: biochemical
Details: unit not given; CerS5, labeled palmitoyl CoA

Qu. What does the record list as Rate of N-Acylation (either pmol/mg/min or % of control) for "CCCCCCCCCCCCc1ccc(NC(=O)[C@@H](N)CCN)cc1" ?
Ans. 2.77 ± 0.65 pmol/mg/min or % of control

Qu. Query CCCCCCCCCCCCCCc1ccc(NC(=O)C(N)CN)cc1 (stereo not drawn) next
Ans. 5.21 ± 1.33 pmol/mg/min or % of control

Qu. Query "CCCCCCCCCCCCc1ccc(NC(=O)[C@@H](N)CN)cc1" next
Ans. 0.14 ± 0.004 pmol/mg/min or % of control

Qu. Query "CCCCCCCCCCCCCCNC(=O)[C@H](N)CN" next
Ans. 0.98 ± 0.09 pmol/mg/min or % of control

Qu. Query "CCCCCCCCCCCCCCNC(=O)[C@@H](N)CN" next
Ans. 25.42 ± 6.97 pmol/mg/min or % of control

Qu. Query CCCCCCCCCCCCCCCCNC(=O)C(N)CN (stereo not drawn) next
Ans. 2.81 ± 1.06 pmol/mg/min or % of control

Qu. Query "CCCCCCCCCCCCc1ccc(NC(=O)[C@H](N)CN)cc1" next
Ans. 0.02 ± 0.003 pmol/mg/min or % of control

Qu. Query "CCCCCCCCCCCCCCCCc1ccc(NC(=O)[C@@H](N)CN)cc1" next
Ans. 3.78 ± 0.24 pmol/mg/min or % of control

* * *

Target: UniProt Q8N5B7
Assay: CerS5 activity/inhibition assay using NBD sphinganine
Format: biochemical
Settings: 25 μM compound, read-out: CerS5 activity (percentage of control)
observable: remaining activity at 25 µM (%)
Numeric answer only, unit % assumed.

Before answering, review these 5 worked examples.
{"columns": ["compound", "val"],
 "data": [
  ["CCCCCCCCCCCCCCCCc1ccc(NC(=O)[C@@H](N)CN)cc1", 76.6],
  ["CCCCCCCCCCCCc1ccc(NC(=O)C(O)CN)cc1 (stereo not shown)", 163],
  ["CCCCCCCCCCCCCCc1ccc(NC(=O)C(N)CN)cc1 (stereo not shown)", 98.5],
  ["CCCCCCCCCCCCc1ccc(NC(=O)[C@H](N)CN)cc1", 96.7],
  ["CCCCCCCCCCCCc1ccc(NC(=O)[C@@H](N)CN)cc1", 107]
]}

Qu. Query for UniProt Q8N5B7: what remaining activity at 25 µM does the record show for "CCCCCCCCCCCCc1ccc(NC(=O)[C@@H](N)CCN)cc1" ?
Ans. 163

Qu. Query CCCCCCCCCCCCCCCCNC(=O)C(N)CN (stereo not shown) next
Ans. 114

* * *

Biological target: CerS5 (Homo sapiens (Human))
Assay: CerS5 activity/inhibition assay using NBD sphinganine
Assay type: biochemical
Settings: 75 μM compound, read-out: CerS5 activity (percentage of control)
observable: remaining activity at 75 µM (%)
Numeric answer only, unit % assumed.

{"columns": ["molecule", "readout.units", "remaining activity at 75 µM"],
 "data": [
  ["CCCCCCCCCCCCCCc1ccc(NC(=O)C(N)CN)cc1 (stereo not shown) [Compound 792205]", "%", 59.4],
  ["CCCCCCCCCCCCCCCCNC(=O)C(N)CN (stereo not shown) [Compound 792208]", "%", 72.7],
  ["CCCCCCCCCCCCCCCCc1ccc(NC(=O)[C@@H](N)CN)cc1 [Compound 792206]", "%", 125],
  ["CCCCCCCCCCCCc1ccc(NC(=O)[C@@H](N)CN)cc1 [Compound 791995]", "%", 109]
]}

Qu. What does the record list as remaining activity at 75 µM for CCCCCCCCCCCCc1ccc(NC(=O)C(O)CN)cc1 (stereo not shown) [Compound 792211] ?
Ans. 49.8

Qu. Query CCCCCCCCCCCCc1ccc(NC(=O)[C@@H](N)CCN)cc1 [Compound 792212] next
Ans. 119

Qu. Query CCCCCCCCCCCCc1ccc(NC(=O)[C@H](N)CN)cc1 [Compound 791996] next
Ans. 105
